assayed.target: T1, recombinant soluble HCV E1 protein (hepatitis C virus)
T1 construct: It is not the cell-surface E1-myc construct (aa 174-359 of H77c) that was used for phage selection; also called recombinant E1; soluble E1 protein
test.details: ELISA, recombinant E1 captured on GNA lectin; crude periplasmic Fab
In plain terms, low OD405 nm, meaning strictly below 0.5 OD405 nm, gives t, and everything else gives f.

Solved entries:
binder	label.class
Fab clone 2b-4 (Fab, V domains shown, Human Fab (gamma1 Fd + kappa), crude periplasmic preparation, approx. 0.68 ug Fab/ml) VH: EVQLLESGGEVKKPGSSVKVSCKASGGPFSSYAIHWVRQAPGQGLEWMGAIIPFLGRAKYAQKFEGRVTITADGSMSTAYMEVSSLRSDDTAMYYCARDRGELLLRMDVWGQGTAVTVSS VL: AELTQSPAFMSATPGDKVNISCKASQDIDDDMNWYQQKPGEAAIFIIQEATTLVPGIPPRFSGSGYGTDFTLTINNIESEDAAYYFCLQHDNFPLTFGQGTKVEIK	t
Fab clone 2a-23 (Fab, V domains shown, Human Fab (gamma1 Fd + kappa), crude periplasmic preparation, approx. 0.50 ug Fab/ml) VH: EVQLLESGAGVVQPGKSLTLSCVGSGFTFSIYAMHWVRQAPGKGLEWVAVLSSDGSNDYYADSVKGRFSIFRDTSKNSLNLLMNNVRGEDTAVYYCARDGDGSFFYWGQGTLVTVSS VL: AELTQSPAFMSATPGDKVNISCKASQDIDDDMNWYQQKPGEAAIFIIQEATTLVPGIPPRFSGSGYGTDFTLTINNIESEDAAYYFCLQHDNFPLTFGQGTKVEIK	f
Fab clone 6a:5 (Fab, V domains shown, Tested as a human Fab (gamma1 Fd + kappa), crude periplasmic preparation, approx. 0.33 ug Fab/ml) VH: EVQLLESGPGLVKPSQTLSLTCAISGDNVSRKSAAWNWIRQSPSRGLEWLGRTYHMSKWYSVYATSLKSRININVDTSRNQFALQLRSVTPEDTAVYYCAREGPEWAVGGTYGMDVWGQGTTVTVSS VL: AELTQSPDTLSLSPGERATLSCRASQSVNNNYLAWYQQKPGQAPRLLIYGASSRATGIPDRFSGSGSETDFTLTISRLEPEDFAVYYCQQYDSSRTFGQGTKVEIK	t

Exercise: Given Fab clone 2b-7 (Fab, V domains shown, Human Fab (gamma1 Fd + kappa), crude periplasmic preparation, approx. 0.54 ug Fab/ml) VH: VQLLEQSGAEVKKPGESLKISCRASGYSFSLFWVAWVRQMPGQGLEWMAIIYPGDSDTTYSPSFEGQVNVSVDKPISTAYLQWSSLKASDTAMYYCARRRSSDRRDAFDIWGPGTMVTVSS VL: AELTQSPAFMSATPGDKVNISCKASQDIDDDMNWYQQKPGEAAIFIIQEATTLVPGIPPRFSGSGYGTDFTLTINNIESEDAAYYFCLQHDNFPLTFGQGTKVEIK , is recorded OD405 nm strictly lower than 0.5 OD405 nm?
Key: t

Exercise: Consider the binder Fab clone 1:8 (Fab, V domains shown, Human Fab (gamma1 Fd + kappa), crude periplasmic preparation, approx. 0.01 ug Fab/ml) VH: EVQLLESGGGLVEPGRSLRLSCAASGFNFGDYAIHWVRQGPGKGLEWVAGISWNSGSIGYADSVKGRFIISRDNAKKTLFLQMNTLRTEDTALYYCVKETGAQGVAGSGAYYFHNWGQGTLVTVSS VL: AELTQSPSSLSASIGDRVTITCRASQGISNYVAWYQQRPGKVPKLLIFGASALHSGVPSRFSGSGSGTDFTLTITSLQPEDVATYYCQKYRSAPLTFGPGTRVDLK . Is its OD405 nm strictly less than 0.5 OD405 nm?
Key: f

Exercise: Answer whether the binder Fab clone 2b-9 (Fab, V domains shown, Human Fab (gamma1 Fd + kappa), crude periplasmic preparation, approx. 0.19 ug Fab/ml) VH: LLESGPGLVQPSQTLSLTYAISGDSVSSNSAAWTWIRQSPSRGLEWLGMTYYRSQWYHEYAVSLKSRITINADTSNNQFSLQVNSVTPEDTALYYCARARFVGDTTGYYTFDYWGQGTLVTVSS VL: AELTQSPGTLSLSPGERGTLSCRASQSVSSSYLAWYQQKAGQAPRLLIYGASSRATGIPDRFSGSGSGTDFTLTISRLEPEDFAVYYCQRYGTSPKTFGQGTKVEFK has OD405 nm strictly less than 0.5 OD405 nm
Key: t

Exercise: Decide: OD405 nm of Fab clone 2b-17 (Fab, V domains shown, Human Fab (gamma1 Fd + kappa), crude periplasmic preparation, approx. 0.16 ug Fab/ml) VH: EVQLLESGGGLVQPGRSLRLSCAASGFTFSNSDMHWVRQAPGKGLEWVTVSSRDGYDNYYADSVRGRFTISRDNSKNTLYLQMNTLRAEDTAVYYCAKRRGYAFDIWGQGTMVTVSS VL: AELTQSPSSLSASVGDRVTITCRASQSINTYLNWYQQKPGKAPELLIYGASSLQSGVPSRFSGSGSGTDFTLTITSLQAEDFASYFCQQSDSTPRTFGQGTKVEIK strictly below 0.5 OD405 nm?
Key: t

Exercise: I wonder whether Fab clone 4:6 (Fab, V domains shown, Tested as a human Fab (gamma1 Fd + kappa), crude periplasmic preparation, approx. 0.24 ug Fab/ml) VH: VQLLEQSGAEVKKPGASVKVSCKASGYTFTKYYLHWVRQAPGQGLEWMGFINPSGGSTSSAQKFQGRISMTRDTSTTTVYMEVNSVTSEDTAVYYCARVGRLGVGATGAFDLWGQGTMVTVSS VL: AELTQSPSSLSASVGDRVTITCQASQDINYSLNWYQQKPGKPPKLLIYYASHSDTGVPSRFSGGGSGTRFTLTIYSLQPEDIATYYCQHFDHVPRYTFGPGTKVDLK has OD405 nm below 0.5 OD405 nm. Can you tell?
Key: f

Exercise: Consider Fab clone 2a-5 (Fab, V domains shown, Human Fab (gamma1 Fd + kappa), crude periplasmic preparation, approx. 0.44 ug Fab/ml) VH: EVQLLESGPGLVKPSETLSLTCTVSTGSISGYFWSWIRQPPGKGLEWIAYIHNSGNTNYNPSLRSRVTVSIDTSKNQFSLKLTSVTAADTAVYYCARDGGGWDTYLDSWGQGFLVTVSS VL: AELTQSPSSLSASVGDRVTITCRASQTVSSYLNWYQQKPGKAPKVLIYGISTLQSGVPSRFSGSGSETDFTLTISNLQPEDFAIYYCQQSYSSRTFGQGTKVEIK . Does its OD405 nm lie strictly below 0.5 OD405 nm?
Key: f

Exercise: In plain terms, does Fab clone 2a-30 (Fab, V domains shown, Human Fab (gamma1 Fd + kappa), crude periplasmic preparation, approx. 0.96 ug Fab/ml) VH: VQLLEQSGGGLVQPGGSLRLSCTASGFTLTDYSMDWVRQAPGKGPEWVGRSRNKANIYTTEYAASVKGRFVISRDDSENSVYLQMNNVKMDDTAVYYCARGEGIFYGSGSLDLWGQGAVVTVSS VL: AELTQSPSSLSASVGDRVTITCRSSQSISNSLHWFQQEPGKAPKLLIYAASTLQSGVPSRFSGSGSGTDFTLIITGLQPEDFATYYCQQSPRTPLTFGGGTKVEIR come in under 0.5 OD405 nm for OD405 nm?
Key: f
